Target: HLA-A*11:01
Assay: IEDB peptide-MHC binding, purified MHC/competitive/radioactivity; bounds were set here for any values at or beyond the usual limits of such assays
Conditions: source organism: Homo sapiens
pIC50: −log10 of the molar value.

{"columns": ["SEQ", "pIC50"],
 "data": [
  ["FGLAKLLGA", "≤ 4.30"],
  ["KIPVAIKTSP", "≤ 4.70"],
  ["GRAKLLGAEEK", "≤ 4.30"],
  ["VKIPVAIKTS", "≤ 4.70"],
  ["KVKIPVAIKT", 4.99],
  ["IKTSPKANKEI", "≤ 4.70"],
  ["KTSPKANK", 5.77],
  ["LAKLLGAEEK", "≤ 4.30"],
  ["AIKTSPKANKE", 5.00],
  ["IKTSPKANKE", "≤ 4.70"],
  ["IKTSPKANK", "≤ 4.70"],
  ["PVAIKTSPK", 6.11],
  ["VAIKTSPKAN", "≤ 4.70"],
  ["IKTSPKAN", "≤ 4.70"],
  ["PVAIKTSP", "≤ 4.70"],
  ["VKIPVAIKT", "≤ 4.70"],
  ["PVAIKTSPKAN", 5.19],
  ["KVKIPVAIKTS", 4.94],
  ["VAIKTSPKANK", 5.79],
  ["VAIKTSPK", 5.70],
  ["IPVAIKTS", "≤ 4.70"],
  ["KTSPKANKEI", "≤ 4.70"],
  ["EKVKIPVAIKT", 4.82],
  ["IPVAIKTSPK", 5.47],
  ["RAKLLGAEEK", 4.66],
  ["KIPVAIKTS", "≤ 4.70"],
  ["VKIPVAIKTSP", "≤ 4.70"],
  ["PVAIKTSPKA", 4.94],
  ["AIKTSPKAN", "≤ 4.70"],
  ["KITDFGLAK", 6.88],
  ["GLAKLLGAEEK", "≤ 4.30"],
  ["HVKITDFGL", "≤ 4.30"],
  ["VAIKTSPKA", "≤ 4.70"],
  ["KTSPKANKEIL", "≤ 4.70"],
  ["IPVAIKTSPKA", "≤ 4.70"],
  ["KIPVAIKT", "≤ 4.70"],
  ["KIPVAIKTSPK", 6.06],
  ["AIKTSPKA", "≤ 4.70"],
  ["AIKTSPKANK", 5.33]
]}
